- Tested on: 596521-263-R-J1-PDC complex spheroids, viability % of control
- Experiment Summary: Anticancer human tumor 596521-263-R-J1-PDC patient-derived soft tissue sarcoma cell line growth inhibition [GQUAD]
- Stated Conditions: second compound 0.1 µM; first compound 0.1 µM; stronger effect = lower value
Value Type: viability, T/C (%)
Give bare numbers, in %.

For each entry beneath this line, provide reported viability, T/C.
1. C=CCn1c(=O)c2cnc(Nc3ccc(N4CCN(C)CC4)cc3)nc2n1-c1cccc(C(C)(C)O)n1 + Cc1cnc(CNC(=O)c2c(=O)c3ccc(N4CCCN(C)CC4)nc3n3c2sc2ccccc23)cn1
2. CC1COCCN1c1cc(C2(S(C)(=N)=O)CC2)nc(-c2ccnc3[nH]ccc23)n1 (stereo unspecified) + Cc1[nH]c2ccc(F)cc2c1-c1nc2c3cccnc3c3ncccc3c2[nH]1
3. C=CC(=O)N1CCN(c2nc(=O)n(-c3c(C)ccnc3C(C)C)c3nc(-c4c(O)cccc4F)c(F)cc23)C(C)C1 (stereo unspecified) + Cc1[nH]c2ccc(F)cc2c1-c1nc2c3cccnc3c3ncccc3c2[nH]1
4. COc1ccc([C@@H](O)c2cc(-c3ncnc4cc(N5CCOCC5)ccc34)c(F)cc2Cl)nn1 + CN(C)c1ccc(Nc2c3ccc(NC(=O)CCN4CCCC4)cc3nc3cc(NC(=O)CCN4CCCC4)ccc23)cc1
5. COc1cccc2c1C(=O)c1c(O)c3c(c(O)c1C2=O)CC(O)(C(=O)CO)CC3OC1CC(N)C(O)C(C)O1 (stereo unspecified) + Cc1cnc(CNC(=O)c2c(=O)c3ccc(N4CCCN(C)CC4)nc3n3c2sc2ccccc23)cn1
6. COc1cccc2c1C(=O)c1c(O)c3c(c(O)c1C2=O)CC(O)(C(=O)CO)CC3OC1CC(N)C(O)C(C)O1 (stereo unspecified) + Cc1[nH]c2ccc(F)cc2c1-c1nc2c3cccnc3c3ncccc3c2[nH]1
7. CC1COCCN1c1cc(C2(O)CC3CCC(C2)O3)c2cnn(-c3ccn[nH]3)c2n1 (stereo unspecified) + Cc1cnc(CNC(=O)c2c(=O)c3ccc(N4CCCN(C)CC4)nc3n3c2sc2ccccc23)cn1

RESULT:
72.9
95.5
97.1
101
73.8
77
49.9

----------
- Tested on: 596521-263-R-J1-PDC complex spheroids, viability % of control
- Experiment Summary: Anticancer human tumor 596521-263-R-J1-PDC cell line growth inhibition [GQUAD]
- Stated Conditions: second compound 0.0316 µM; first compound 0.0316 µM; stronger effect = lower value
For each record, write down the corresponding viability, T/C.
Answers are plain numbers, in %.

| Compound | Tgt | Units Text | viability, T/C |
| --- | --- | --- | --- |
| Cn1ncnc1[C@H]1c2n[nH]c(=O)c3cc(F)cc(c23)N[C@@H]1c1ccc(F)cc1 + Cc1cnc(CNC(=O)c2c(=O)c3ccc(N4CCCN(C)CC4)nc3n3c2sc2ccccc23)cn1 | 596521-263-R-J1-PDC complex spheroids, viability % of control | % | 90.2 |
| Cc1[nH]c2ccccc2c1CCNCc1ccc(/C=C/C(=O)NO)cc1 + Cc1cnc(CNC(=O)c2c(=O)c3ccc(N4CCCN(C)CC4)nc3n3c2sc2ccccc23)cn1 | 596521-263-R-J1-PDC complex spheroids, viability % of control | % | 58.4 |

QUERY: Give me measured viability, T/C, please, for this compound: CC(C)(O)C1CCC(Nc2ccc3ncc(-c4cccc(C(F)(F)F)c4)n3n2)CC1 (stereo not drawn) + Cc1cnc(CNC(=O)c2c(=O)c3ccc(N4CCCN(C)CC4)nc3n3c2sc2ccccc23)cn1
RESULT: 89.8

----------
- Tested on: 596521-263-R-J1-PDC complex spheroids, viability % of control
- Experiment Summary: Anticancer human tumor 596521-263-R-J1-PDC cell line growth inhibition [GQUAD];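 further: spheroids exposed to drugs for 7 days before viability reading; 100% = DMSO vehicle control viability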
- Stated Conditions: second compound 10 µM; first compound 10 µM; stronger effect = lower value
Value Type: viability, T/C (%)
Numbers only, in %.

| Compound | Units Text | viability, T/C |
| --- | --- | --- |
| CC(C)n1c(=O)n(C)c2cnc3cc(F)c(-c4ccc(OCCCN5CCCCC5)nc4)cc3c21 + CN(C)c1ccc(Nc2c3ccc(NC(=O)CCN4CCCC4)cc3nc3cc(NC(=O)CCN4CCCC4)ccc23)cc1 | % | 31.5 |
| COc1ncnc(C2CC2)c1-c1ncc2cnn(Cc3ccc(-c4nc(C(F)(F)F)cn4C(C)C)cc3)c2n1 + CN(C)c1ccc(Nc2c3ccc(NC(=O)CCN4CCCC4)cc3nc3cc(NC(=O)CCN4CCCC4)ccc23)cc1 | % | 38.4 |
| CC1COCCN1c1cc(C2(S(C)(=N)=O)CC2)nc(-c2ccnc3[nH]ccc23)n1 (stereo not given) + Cc1cnc(CNC(=O)c2c(=O)c3ccc(N4CCCN(C)CC4)nc3n3c2sc2ccccc23)cn1 | % | 37.6 |
| CC1COCCN1c1cc(C2(O)CC3CCC(C2)O3)c2cnn(-c3ccn[nH]3)c2n1 (stereo not given) + Cc1[nH]c2ccc(F)cc2c1-c1nc2c3cccnc3c3ncccc3c2[nH]1 | % | 14.2 |

Field: next compound
QUERY: Give me measured viability, T/C, please, for this compound: CC(C)(O)C1CCC(Nc2ccc3ncc(-c4cccc(C(F)(F)F)c4)n3n2)CC1 (stereo not given) + Cc1cnc(CNC(=O)c2c(=O)c3ccc(N4CCCN(C)CC4)nc3n3c2sc2ccccc23)cn1
RESULT: 0.18

----------
- System: 596521-263-R-J1-PDC complex spheroids, viability % of control
- Experiment Summary: Anticancer human tumor 596521-263-R-J1-PDC cell line growth inhibition [GQUAD];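 further: spheroids exposed to drugs for 7 days before viability reading; 100% = DMSO vehicle control viability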
- Stated Conditions: second compound 3.16 µM; first compound 3.16 µM; stronger effect = lower value
Value Type: viability, T/C (%)
Answers are plain numbers, in %.

Below, each entry is followed by its recorded viability, T/C result.
| Compound | Units Text | viability, T/C |
| --- | --- | --- |
| CC(C)(O)C1CCC(Nc2ccc3ncc(-c4cccc(C(F)(F)F)c4)n3n2)CC1 (stereo not drawn) + Cc1cnc(CNC(=O)c2c(=O)c3ccc(N4CCCN(C)CC4)nc3n3c2sc2ccccc23)cn1 | % | 0.12 |
| C=CCn1c(=O)c2cnc(Nc3ccc(N4CCN(C)CC4)cc3)nc2n1-c1cccc(C(C)(C)O)n1 + Cc1cnc(CNC(=O)c2c(=O)c3ccc(N4CCCN(C)CC4)nc3n3c2sc2ccccc23)cn1 | % | 32.7 |

Field: next compound
QUERY: Give the observed viability, T/C of Cc1cccc(N(C)C(=O)C2C(O)CCN2c2nc(C)cc(C(F)(F)F)c2C#N)c1 (stereo not drawn) + Cc1[nH]c2ccc(F)cc2c1-c1nc2c3cccnc3c3ncccc3c2[nH]1 for 596521-263-R-J1-PDC complex spheroids, viability % of control.
RESULT: 93.4

----------
- System: 596521-263-R-J1-PDC complex spheroids, viability % of control
- Experiment Summary: Anticancer human tumor 596521-263-R-J1-PDC cell line growth inhibition [GQUAD];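 further: spheroids exposed to drugs for 7 days before viability reading; 100% = DMSO vehicle control viability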
- Stated Conditions: second compound 0.0316 µM; first compound 0.1 µM; stronger effect = lower value
Value Type: viability, T/C (%)
Answers are plain numbers, in %.

Below, each entry is followed by its recorded viability, T/C result.
| Compound | viability, T/C / % |
| --- | --- |
| CC(C)(O)C1CCC(Nc2ccc3ncc(-c4cccc(C(F)(F)F)c4)n3n2)CC1 (stereo not given) + CN(C)c1ccc(Nc2c3ccc(NC(=O)CCN4CCCC4)cc3nc3cc(NC(=O)CCN4CCCC4)ccc23)cc1 | 97.3 |
| C=CCn1c(=O)c2cnc(Nc3ccc(N4CCN(C)CC4)cc3)nc2n1-c1cccc(C(C)(C)O)n1 + CN(C)c1ccc(Nc2c3ccc(NC(=O)CCN4CCCC4)cc3nc3cc(NC(=O)CCN4CCCC4)ccc23)cc1 | 81.2 |
| Cc1cccc(N(C)C(=O)C2C(O)CCN2c2nc(C)cc(C(F)(F)F)c2C#N)c1 (stereo not given) + Cc1[nH]c2ccc(F)cc2c1-c1nc2c3cccnc3c3ncccc3c2[nH]1 | 93.3 |

For each entry beneath this line, provide reported viability, T/C.
1. CC(=O)O[C@H]1C(=O)[C@@]2(C)[C@H]([C@H](OC(=O)c3ccccc3)[C@]3(O)C[C@H](OC(=O)[C@H](O)[C@@H](NC(=O)c4ccccc4)c4ccccc4)C(C)=C1C3(C)C)[C@]1(OC(C)=O)CO[C@@H]1C[C@@H]2O + Cc1[nH]c2ccc(F)cc2c1-c1nc2c3cccnc3c3ncccc3c2[nH]1
2. CC(C)n1c(=O)n(C)c2cnc3cc(F)c(-c4ccc(OCCCN5CCCCC5)nc4)cc3c21 + CN(C)c1ccc(Nc2c3ccc(NC(=O)CCN4CCCC4)cc3nc3cc(NC(=O)CCN4CCCC4)ccc23)cc1

RESULT:
1: 55.8; 2: 103

----------
- System: 596521-263-R-J1-PDC complex spheroids, viability % of control
- Experiment Summary: Anticancer human tumor 596521-263-R-J1-PDC cell line growth inhibition [GQUAD];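 further: spheroids exposed to drugs for 7 days before viability reading; 100% = DMSO vehicle control viability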
- Stated Conditions: second compound 0.0316 µM; first compound 1 µM; stronger effect = lower value
Rule: measured viability, T/C below 60% gets True; anything equal to or greater than 60% gets False.

Please review the entries below; each comes with its answer.
| Compound | Tgt | Class Assignment |
| --- | --- | --- |
| CC1COCCN1c1cc(C2(O)CC3CCC(C2)O3)c2cnn(-c3ccn[nH]3)c2n1 (stereo not given) + Cc1cnc(CNC(=O)c2c(=O)c3ccc(N4CCCN(C)CC4)nc3n3c2sc2ccccc23)cn1 | 596521-263-R-J1-PDC complex spheroids, viability % of control | True |
| CC(C)(O)C1CCC(Nc2ccc3ncc(-c4cccc(C(F)(F)F)c4)n3n2)CC1 (stereo not given) + CN(C)c1ccc(Nc2c3ccc(NC(=O)CCN4CCCC4)cc3nc3cc(NC(=O)CCN4CCCC4)ccc23)cc1 | 596521-263-R-J1-PDC complex spheroids, viability % of control | False |
| CC(C)n1c(=O)n(C)c2cnc3cc(F)c(-c4ccc(OCCCN5CCCCC5)nc4)cc3c21 + CN(C)c1ccc(Nc2c3ccc(NC(=O)CCN4CCCC4)cc3nc3cc(NC(=O)CCN4CCCC4)ccc23)cc1 | 596521-263-R-J1-PDC complex spheroids, viability % of control | False |

QUERY: Report whether reported viability, T/C is lower than 60% (strictly) for Cc1cccc(N(C)C(=O)C2C(O)CCN2c2nc(C)cc(C(F)(F)F)c2C#N)c1 (stereo not given) + Cc1cnc(CNC(=O)c2c(=O)c3ccc(N4CCCN(C)CC4)nc3n3c2sc2ccccc23)cn1
RESULT: False

QUERY: Report whether reported viability, T/C is lower than 60% (strictly) for CC(C)(O)C1CCC(Nc2ccc3ncc(-c4cccc(C(F)(F)F)c4)n3n2)CC1 (stereo not given) + Cc1[nH]c2ccc(F)cc2c1-c1nc2c3cccnc3c3ncccc3c2[nH]1
RESULT: False

Where do these numbers come from? They come from PubChem BioAssay AID2060500.
